# system: human AspH (His6-AspH315–758) (Homo sapiens)
# Construct: N-Terminally His6-tagged human AspH315–758 (His6-AspH315–758) was produced in Escherichia coli BL21 (DE3) cells; made in house; host or cells: Escherichia coli BL21 (DE3), pET-28a(+) vector
# Sequence (Q12797 315-758): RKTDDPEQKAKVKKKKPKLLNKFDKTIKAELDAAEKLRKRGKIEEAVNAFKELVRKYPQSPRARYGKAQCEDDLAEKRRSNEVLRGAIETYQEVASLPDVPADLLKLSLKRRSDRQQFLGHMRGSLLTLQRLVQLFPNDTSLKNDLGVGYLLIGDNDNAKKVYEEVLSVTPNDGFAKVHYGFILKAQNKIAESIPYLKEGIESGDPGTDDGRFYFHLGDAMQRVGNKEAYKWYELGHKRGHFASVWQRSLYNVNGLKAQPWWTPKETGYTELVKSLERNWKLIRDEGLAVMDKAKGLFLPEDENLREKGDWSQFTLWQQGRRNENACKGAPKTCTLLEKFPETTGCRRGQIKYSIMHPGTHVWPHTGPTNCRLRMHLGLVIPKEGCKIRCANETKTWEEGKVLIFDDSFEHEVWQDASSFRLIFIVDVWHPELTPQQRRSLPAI
# procedureText: SPE-MS AspH inhibition assay (hFX-CP101-119 substrate hydroxylation)
# Assay type: biochemical
# runConditions: AspH-inhibitor screening, 384-well Plate 1
Where a name gives a salt, the structure may show the parent alone.
assayMetric: Plate 1 (% inhibition) (%)

Look up Plate 1 (% inhibition) for this compound: CC[C@@]1(O)C(=O)OCc2c1cc1n(c2=O)Cc2cc3c(CN(C)C)c(O)ccc3nc2-1 [Topotecan hydrochloride]
4.87

[A] O=c1[nH]c(=O)n([C@H]2C[C@H](O)[C@@H](CO)O2)cc1F [Floxuridine]
[B] Nc1ncn([C@H]2C[C@H](O)[C@@H](CO)O2)c(=O)n1 [Decitabine (Dacogen)]
[C] COC(=O)c1ccc2c(c1)NC(=O)/C2=C(\Nc1ccc(N(C)C(=O)CN2CCN(C)CC2)cc1)c1ccccc1 [BIBF 1120_Nintedanib]
Sort entries by Plate 1 (% inhibition) from minimum to maximum value. API: response body holds the labels in the requested order.
C, A, B
(C: -13.53%, A: 0.74%, B: 4.17%)
